# assayDetails: Solubility (Test F)
# Assay type: physicochemical
# testSettings: arithmetic mean if run multiple times
measurementType: solubility

INSERT INTO results (compound, observedvalue) VALUES
  ('COc1cc(F)c(O[C@H]2CC[C@@](C)(C(=O)O)CC2)cc1C(=O)NC1C2CCC(C2)C1C(=O)Nc1cccc(S(=O)(=O)C(F)(F)F)c1 (single isomer, unassigned)', '190 µM'),
  ('CC1(CNC(=O)[C@H]2[C@@H]3CC[C@@H](C3)[C@H]2NC(=O)c2cc(O[C@H]3CC[C@@](C)(C(=O)O)CC3)c(Cl)cc2F)CCC1', '670 µM'),
  ('COc1cc(F)c(-c2ccc(-c3nn[nH]n3)cc2)cc1C(=O)N[C@@H]1[C@H]2CC[C@H](C2)[C@@H]1C(=O)Nc1cccc(S(=O)(=O)C(F)(F)F)c1', '880 µM'),
  ('COc1cc(F)c(O[C@H]2CC[C@@](C)(C(=O)O)CC2)cc1C(=O)Nc1c(C)cccc1C(=O)NCC1(C)CCC1', '770 µM'),
  ('COc1cc(NC(=O)[C@H]2[C@@H]3CC[C@@H](C3)[C@H]2NC(=O)c2cc(O[C@H]3CC[C@@H](C(=O)O)CC3)c(F)cc2OC)cc(C(F)(F)F)c1', '530 µM'),
  ('COc1cc(F)c(O[C@H]2CC[C@@H](C(=O)O)CC2)cc1C(=O)N[C@@H]1[C@H]2CC[C@H](C2)[C@@H]1C(=O)Nc1cccc(C2CC2)c1', '420 µM'),
  ('COc1cc(F)c(O[C@H]2CC[C@@H](C(N)=O)CC2)cc1C(=O)N[C@H]1[C@@H](C(=O)Nc2ccc(F)c(C(F)(F)F)c2)[C@@H]2C=C[C@H]1C2', '13 µM'),
  ('COc1cc(C#N)c(O[C@H]2CC[C@@H](C(=O)O)CC2)cc1C(=O)N[C@@H]1[C@H]2CC[C@H](C2)[C@@H]1C(=O)Nc1cccc(S(=O)(=O)C(F)(F)F)c1', '> 1000 µM'),
  ('COc1cc(F)c(O[C@H]2CC[C@@](C)(C(=O)O)CC2)cc1C(=O)N[C@H]1C[C@@H](OC)C[C@H]1C(=O)Nc1cccc(S(=O)(=O)C(F)(F)F)c1 (stereo in doubt)', '920 µM'),
  ('COc1cc(F)c(-c2cccc(C(=O)O)c2)cc1C(=O)N[C@H]1[C@@H](C(=O)Nc2cccc(S(=O)(=O)C(F)(F)F)c2)[C@@H]2C=C[C@H]1C2 (racemic) [Example 225]', '10 µM'),
  ('COc1c(F)cc(O[C@H]2CC[C@@](C)(C(=O)O)CC2)cc1C(=O)N[C@@H]1[C@H]2CC[C@H](C2)[C@@H]1C(=O)NCC1(C)CCC1', '680 µM'),
  ('COc1cc(F)c(O[C@H]2CC[C@@H](C(=O)O)CC2)cc1C(=O)N[C@@H]1[C@H]2CC[C@H](C2)[C@@H]1C(=O)Nc1cccc(OC(F)(F)F)c1F', '400 µM'),
  ('COc1cc(F)c(O[C@H]2CC[C@@](C)(C(=O)O)CC2)cc1C(=O)Nc1cc2ccccc2cc1C(=O)NCC1(C)CCC1', '< 0.23 µM'),
  ('COc1cc(F)c(O[C@H]2CC[C@@H](C(=O)O)CC2)cc1C(=O)N[C@@H]1CC(F)(F)C[C@@H]1C(=O)Nc1ccc(F)c(C(F)(F)F)c1 (racemic)', '38 µM'),
  ('COc1cc(F)c(O[C@H]2CC[C@@](C)(C(=O)O)CC2)cc1C(=O)Nc1cccc(Cl)c1C(=O)NCC1(C)CCC1', '2.8 µM'),
  ('COc1cc(C#N)c(O[C@H]2CC[C@@](C)(C(=O)O)CC2)cc1C(=O)N[C@@H]1[C@H]2CC[C@H](C2)[C@@H]1C(=O)NCC1CC(C)(C)C1', '690 µM'),
  ('COc1cc(C#N)c(O[C@H]2CC[C@@](C)(C(=O)O)CC2)cc1C(=O)N[C@@H]1[C@H]2CC[C@H](C2)[C@@H]1C(=O)NCC(C)(F)F', '890 µM'),
  ('COc1cc(F)c(-c2ccc(OCC(=O)O)nc2)cc1C(=O)N[C@@H]1[C@H]2CC[C@H](C2)[C@@H]1C(=O)Nc1cccc(S(=O)(=O)C(F)(F)F)c1', '550 µM'),
  ('COCC1(CNC(=O)[C@H]2[C@@H]3CC[C@@H](C3)[C@H]2NC(=O)c2cc(O[C@H]3CC[C@@](C)(C(=O)O)CC3)c(C#N)cc2OC)CC1', '980 µM'),
  ('COc1cc(F)c(O[C@H]2CC[C@@](C)(C(=O)O)CC2)cc1C(=O)N[C@@H]1[C@H]2CC[C@H](C2)[C@@H]1C(=O)NCC(C)(C)C#N', '> 1000 µM'),
  ('COc1cc(F)c(O[C@H]2CC[C@@](C)(C(=O)O)CC2)cc1C(=O)N[C@@H]1[C@H]2CC[C@H](C2)[C@@H]1C(=O)N[C@H](C)C1(C)CC1 (racemic)', '980 µM'),
  ('COc1cc(C#N)c(O[C@H]2CC[C@@](C)(C(=O)O)CC2)cc1C(=O)N[C@@H]1[C@H]2CC[C@H](C2)[C@@H]1C(=O)NC(C)(C)CF', '650 µM');
